Assay Target: GAL4-DBD/RORγ-LBD (Homo sapiens)
Sequence (P51449 269-508 limits assumed): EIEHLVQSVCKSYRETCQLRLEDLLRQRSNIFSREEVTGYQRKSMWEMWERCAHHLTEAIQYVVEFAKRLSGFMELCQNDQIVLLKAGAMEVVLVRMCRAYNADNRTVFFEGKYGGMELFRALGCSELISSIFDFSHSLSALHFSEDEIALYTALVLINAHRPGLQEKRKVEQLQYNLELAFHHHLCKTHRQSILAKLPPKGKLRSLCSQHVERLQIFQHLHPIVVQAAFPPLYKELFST
Sequence (P04386 1-147 partner limits assumed): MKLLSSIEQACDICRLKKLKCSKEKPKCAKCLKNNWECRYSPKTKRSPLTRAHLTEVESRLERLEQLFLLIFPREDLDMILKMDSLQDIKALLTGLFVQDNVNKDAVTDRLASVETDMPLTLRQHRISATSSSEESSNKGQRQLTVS
Measurement Description: RORγt transactivation reporter assay (GAL4-DBD/RORγ-LBD, luciferase read out)
Assay Conditions: HEK293T cells, GAL4-UAS luciferase reporter, overnight (18-24 hours) incubation
pIC50: −log10 of the molar value.
Quick list: pIC50 per entry.
Measurement Label: pIC50

>>> value_observed("COC(=O)c1ccc(-c2cc(C(=O)c3c(Cl)cccc3Cl)n3ccccc23)c(F)c1")
"> 6.30"
>>> value_observed("CCOC(=O)c1ccc(-c2cc(C(=O)c3c(Cl)cccc3C3CC3)n3ccccc23)cc1")
"> 6.30"
>>> value_observed("COCCNC(=O)c1ccc2c(-c3ccc(C(=O)O)cc3)cc(C(=O)c3c(Cl)cccc3Cl)n2c1")
"< 5.30"
>>> value_observed("CCOC(=O)c1ccc(-c2c(F)c(C(=O)c3c(Cl)ccc(F)c3Cl)n3ccccc23)cc1")
"> 6.30"
>>> value_observed("CN(C)C(=O)c1ccc2c(-c3ccc(C(=O)O)cc3)cc(C(=O)c3c(Cl)cccc3C(F)(F)F)n2c1")
"> 6.30"
>>> value_observed("CN(C)C(=O)c1ccc2c(-c3ccc(C(=O)O)cc3)cc(C(=O)c3c(Cl)cccc3Cl)n2c1")
"> 6.30"
>>> value_observed("O=C(O)c1cccc(-c2cc(C(=O)c3c(Cl)cccc3C(F)(F)F)n3ccccc23)c1")
"< 5.30"
>>> value_observed("O=C(O)c1ccc(-c2cc(C(=O)c3c(F)cccc3F)n3cccc(F)c23)cc1")
"> 6.30"

* * *

Assay Target: GAL4-DBD/RORγ-LBD (Homo sapiens)
Measurement Description: RORγt transactivation reporter assay (GAL4-DBD/RORγ-LBD, luciferase read out)
Assay Conditions: HEK293T cells, GAL4-UAS luciferase reporter, overnight (18-24 hours) incubation
pIC50: −log10 of the molar value.
Quick list: pIC50 per entry.
Measurement Label: pIC50

>>> value_observed("CCOC(=O)c1ccc(-c2cc(C(=O)c3c(F)cccc3F)n3ccccc23)c(F)c1 [Example A-38]")
"> 6.30"
>>> value_observed("COC(=O)c1cc(F)c(-c2cc(C(=O)c3c(Cl)cccc3Cl)n3ccccc23)c(F)c1 [Example A-7]")
"> 6.30"
>>> value_observed("O=C(O)c1ccc(-c2cc(C(=O)c3c(Cl)cccc3Cl)n3cc(C(=O)N4CCOCC4)ccc23)cc1 [Example D-3]")
"> 6.00"
>>> value_observed("O=C(O)c1ccc(-c2cc(C(=O)c3c(Cl)cccc3Cl)n3cc(C(=O)N4CCCC4)ccc23)cc1 [Example D-5]")
"> 6.30"
>>> value_observed("O=C(O)c1ccc(-c2cc(C(=O)c3c(Cl)cccc3Cl)n3cc(C(=O)N4CCCCC4)ccc23)cc1 [Example D-4]")
"> 6.00"
>>> value_observed("CCOC(=O)c1ccc(-c2c(C)c(C(=O)c3c(Cl)cccc3C(F)(F)F)n3ccccc23)cc1 [Example C-9]")
"> 6.30"
>>> value_observed("Cc1c(-c2ccc(C(=O)O)cc2)c2ccccn2c1C(=O)c1c(Cl)cccc1Cl [Example C-4]")
"> 6.30"
>>> value_observed("O=C(O)c1ccc(-c2cc(C(=O)c3c(Cl)cccc3C(F)(F)F)n3ccccc23)cc1F [Example A-60]")
"> 6.30"
>>> value_observed("COC(=O)c1ccc(-c2cc(C(=O)c3c(Cl)ccc(F)c3Cl)n3ccccc23)c(F)c1 [Example A-17]")
"> 6.30"
>>> value_observed("O=C(O)c1ccc(-c2cc(C(=O)c3c(Cl)cccc3Br)n3ccccc23)c(F)c1 [Example A-52]")
"> 6.00"
>>> value_observed("O=C(O)c1ccc(-c2c(F)c(C(=O)c3c(Cl)cccc3Cl)n3ccccc23)cc1 [Example B-2]")
"> 6.30"
>>> value_observed("O=C(O)c1ccc(-c2c(F)c(C(=O)c3c(Cl)cccc3Cl)n3ccccc23)c(F)c1 [Example B-4]")
"> 6.30"
>>> value_observed("CCOC(=O)c1ccc(-c2cc(C(=O)c3c(F)cccc3F)n3ccccc23)cc1 [Example A-36]")
"> 6.30"
>>> value_observed("COC(=O)c1ccc(-c2cc(C(=O)c3c(F)cccc3F)n3ccccc23)c(F)c1 [Example A-5]")
"> 6.30"
>>> value_observed("CCOC(=O)c1ccc(-c2cc(C(=O)c3c(Cl)cccc3C3CC3)n3ccccc23)c(F)c1 [Example A-30]")
"> 6.30"
>>> value_observed("CCS(=O)(=O)N1CCC=C(c2cc(C(=O)c3c(Cl)ccc(F)c3Cl)n3ccccc23)C1 [Example G-2]")
"< 5.30"
>>> value_observed("O=C(O)c1ccc(-c2cc(C(=O)c3c(Cl)cccc3Cl)n3ccccc23)cn1 [Example A-10]")
"< 5.30"
>>> value_observed("O=C(O)c1ccc(-c2cc(C(=O)c3c(Cl)cccc3Cl)n3cccc(F)c23)cc1 [Example A-23]")
"> 6.30"
>>> value_observed("O=C(O)c1ccc(-c2cc(C(=O)c3c(Cl)cccc3Cl)n3cc(F)ccc23)cc1 [Example A-26]")
"> 6.30"
>>> value_observed("O=C(O)c1ccc(-c2cc(C(=O)c3c(Cl)cccc3C(F)(F)F)n3cccc(Cl)c23)cc1 [Example A-58]")
"> 6.30"
>>> value_observed("O=C(O)c1ccc(-c2c(F)c(C(=O)c3c(Cl)ccc(F)c3Cl)n3ccccc23)cc1 [Example B-6]")
"> 6.30"
>>> value_observed("O=C(O)c1ccc(-c2cc(C(=O)c3c(Cl)cccc3Br)n3ccccc23)cc1 [Example A-50]")
"> 5.30"
>>> value_observed("O=C(O)c1ccc(-c2cc(C(=O)c3c(Cl)cccc3C(F)(F)F)n3c2CCCC3)c(F)c1 [Example H-4]")
"< 5.30"
>>> value_observed("Cc1c(-c2ccc(C(=O)O)cc2)c2ccccn2c1C(=O)c1c(Cl)cccc1C(F)(F)F [Example C-7]")
"> 6.30"
>>> value_observed("CCOC(=O)c1ccc(-c2cc(C(=O)c3c(F)ccc(F)c3F)n3ccccc23)c(F)c1 [Example A-41]")
"> 6.30"
>>> value_observed("Cc1c(-c2ccc(C(=O)O)cc2F)c2ccccn2c1C(=O)c1c(Cl)cccc1C(F)(F)F [Example C-6]")
"> 6.30"
>>> value_observed("Cc1c(-c2ccc(C(=O)O)cc2)c2ccccn2c1C(=O)c1c(Cl)ccnc1Cl [Example C-5]")
"> 6.30"
>>> value_observed("CNC(=O)c1ccc(-c2nc(C(=O)c3c(Cl)ccc(F)c3Cl)n3ccccc23)cc1 [Example F-1]")
"< 5.30"
>>> value_observed("O=C(O)c1ccc(-c2cc(C(=O)c3c(Cl)ccc(F)c3Cl)n3ccccc23)cc1 [Example A-19]")
"> 6.30"
>>> value_observed("O=C(O)c1ccc(-c2cc(C(=O)c3c(Cl)cccc3C(F)(F)F)n3cc(C(=O)N4CCC4)ccc23)cc1 [Example D-11]")
"> 6.30"
>>> value_observed("O=C(c1c(Cl)ccc(F)c1Cl)c1cc(-c2ccc(C(=O)N3CCOCC3)cc2)c2ccccn12 [Example F-3]")
"< 5.30"

* * *

Quick list: IC50 per entry.
Assay Target: GAL4-DBD/RORγ-LBD (Homo sapiens)
Construct: expressed in transfected cells; host or cells: HEK293T
Measurement Description: RORγt transactivation reporter assay (GAL4-DBD/RORγ-LBD, luciferase read out)
Type: cell-based
Assay Conditions: HEK293T cells, GAL4-UAS luciferase reporter, overnight (18-24 hours) incubation
Measurement Label: IC50

>>> value_observed("O=C(O)c1ccc(-c2cc(C(=O)c3c(F)ccc(F)c3F)n3ccccc23)c(F)c1")
"< 500 nM"
>>> value_observed("CCOC(=O)c1ccc(-c2c(C)c(C(=O)c3c(Cl)ccnc3Cl)n3ccccc23)cc1")
"< 5000 nM"
>>> value_observed("O=C(O)c1ccc(-c2nc(C(=O)c3c(Cl)ccc(F)c3Cl)n3ccccc23)cc1")
"< 500 nM"
>>> value_observed("CCOC(=O)c1ccc(-c2c(C)c(C(=O)c3c(Cl)cccc3Cl)n3ccccc23)cc1")
"< 500 nM"
>>> value_observed("CCOC(=O)c1ccc(-c2cc(C(=O)c3c(F)cccc3Cl)n3ccccc23)cc1")
"< 500 nM"
>>> value_observed("CCOC(=O)c1ccc(-c2c(F)c(C(=O)c3c(Cl)cccc3Cl)n3ccccc23)cc1")
"< 500 nM"
>>> value_observed("O=C(O)c1ccc(-c2cc(C(=O)c3c(F)cccc3Cl)n3cccc(F)c23)c(F)c1")
"< 500 nM"
>>> value_observed("O=C(O)c1ccc(-c2cc(C(=O)c3c(Cl)cccc3Cl)n3cc(C(F)(F)F)ccc23)cc1")
"< 5000 nM"
